- TESTED SYSTEM: Angiotensin-converting enzyme 2 (ACE-2) (Homo sapiens, UniProt Q9BYF1)
- Sequence (Q9BYF1 whole entry): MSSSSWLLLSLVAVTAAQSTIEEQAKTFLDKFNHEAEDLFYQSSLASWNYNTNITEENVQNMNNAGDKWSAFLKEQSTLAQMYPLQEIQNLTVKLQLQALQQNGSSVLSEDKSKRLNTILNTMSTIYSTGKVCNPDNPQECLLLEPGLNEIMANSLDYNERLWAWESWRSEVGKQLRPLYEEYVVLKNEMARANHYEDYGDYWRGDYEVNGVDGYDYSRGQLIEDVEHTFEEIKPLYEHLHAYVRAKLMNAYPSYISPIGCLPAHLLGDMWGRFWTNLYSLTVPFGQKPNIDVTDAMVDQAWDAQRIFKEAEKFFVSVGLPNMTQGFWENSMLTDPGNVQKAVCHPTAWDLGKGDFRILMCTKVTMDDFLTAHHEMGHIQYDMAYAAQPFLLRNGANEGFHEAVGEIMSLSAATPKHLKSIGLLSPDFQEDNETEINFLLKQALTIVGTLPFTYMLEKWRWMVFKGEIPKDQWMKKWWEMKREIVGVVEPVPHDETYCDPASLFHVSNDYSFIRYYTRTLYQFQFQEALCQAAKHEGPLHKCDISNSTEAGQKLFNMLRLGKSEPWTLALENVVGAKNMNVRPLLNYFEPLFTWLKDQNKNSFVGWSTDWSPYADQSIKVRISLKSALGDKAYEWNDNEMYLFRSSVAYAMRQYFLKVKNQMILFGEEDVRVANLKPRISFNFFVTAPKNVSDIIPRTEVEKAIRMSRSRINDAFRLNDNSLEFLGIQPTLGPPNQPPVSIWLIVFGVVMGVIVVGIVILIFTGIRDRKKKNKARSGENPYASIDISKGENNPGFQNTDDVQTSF
- ASSAY NOTES: Inhibition of human C-terminal His/FLAG-tagged ACE-2 expressed in HEK293 cells at 100 uM preincubated for 10 mins followed by Mca-Ala-Pro-Lys(Dnp)-OH substrate addition by fluorescence assay relative to control
- Type: cell-based
- MEASUREMENT SETUP: probe Mca-Ala-Pro-Lys(Dnp)-OH
METRIC: inhibition at 10 min, 100 µM (%)
Write it as a number; the unit % goes unstated.

*Q* Recorded inhibition at 10 min, 100 µM of O=C(N[C@@H](Cc1ccccc1)B(O)O)C(CS)Cc1ccccc1 (stereo partly specified) , please.
*A* 63.2
